# MCV per entry
assay: Tolerability in Sprague-Dawley rats: hematology assays (Example 35); conditions: 50 mg/kg s.c. twice per week for 6 weeks, title says % control

>  <substance>
ISIS 417002: MOE gapmer, nucleobases 1275 to 1318 of SEQ ID NO: 1 (Table 8) (antisense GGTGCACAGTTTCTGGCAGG; MOE gapmer, wing and gap sizes not given here)

>  <MCV>
7

$$$$
>  <substance>
ISIS 416838: MOE gapmer, nucleobases 1018 to 1042 of SEQ ID NO: 1 (Table 6) (antisense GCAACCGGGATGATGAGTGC; MOE gapmer, wing and gap sizes not given here)

>  <MCV>
4

$$$$
>  <substance>
ISIS 416864: MOE gapmer, nucleobases 1275 to 1318 of SEQ ID NO: 1 (Table 8) (antisense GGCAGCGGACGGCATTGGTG; MOE gapmer, wing and gap sizes not given here)

>  <MCV>
4

$$$$
